Molecular target: Neu5Gc(b2-6)Gal(b1-4)GlcNAc
Test: glycan array binding signal (z-score within array); higher = stronger binding
Details: glycan notation: IUPAC condensed, linker removed
Many of the other results were omitted from the sample, so the strongest signals are more common in it than they were.
Parameter: glycan array binding signal (z-score)
// return a plain number; no unit text

- Binder: "RfpC (Mycobacterium tuberculosum), O07747 (protein) MHHHHHHSSGRENLYFQGHMASKSAMAAGLVTASMSLSTAVAHAGPSPNWDAVAQCESGGNWAANTGNGKYGGLQFKPATWAAFGGVGNPAAASREQQIAVANRVLAEQGLDAWPTCGAASGLPIALWSKPAQGIKGS"
  glycan array binding signal (z-score): 3.14

Q) Given the binder Eosinophil-derived neurotoxin (EDN) (Homo sapiens), P10153 (protein) MVPKLFTSQICLLLLLGLLAVEGSLHVKPPQFTWAQWFETQHINMTSQQCTNAMQVINNYQRRCKNQNTFLLTTFANVVNVCGNPNMTCPSNKTRKNCHHSGSQVPLIHCNLTTPSPQNISNCRYAQTPANMFYIVACDNRDQRRDPPQYPVVPVHLDRII , what is its reported glycan array binding signal (z-score)?
A) 0.153

Where do the numbers come from? From the supplement of paper PMC8728848.
